molecular target: UniProt:O95342; experiment: Human transporter inhibition study, BSEP; format: biochemical; settings: read-out: BSEP (bile salt export pump) IC50
Sequence (O95342 whole entry): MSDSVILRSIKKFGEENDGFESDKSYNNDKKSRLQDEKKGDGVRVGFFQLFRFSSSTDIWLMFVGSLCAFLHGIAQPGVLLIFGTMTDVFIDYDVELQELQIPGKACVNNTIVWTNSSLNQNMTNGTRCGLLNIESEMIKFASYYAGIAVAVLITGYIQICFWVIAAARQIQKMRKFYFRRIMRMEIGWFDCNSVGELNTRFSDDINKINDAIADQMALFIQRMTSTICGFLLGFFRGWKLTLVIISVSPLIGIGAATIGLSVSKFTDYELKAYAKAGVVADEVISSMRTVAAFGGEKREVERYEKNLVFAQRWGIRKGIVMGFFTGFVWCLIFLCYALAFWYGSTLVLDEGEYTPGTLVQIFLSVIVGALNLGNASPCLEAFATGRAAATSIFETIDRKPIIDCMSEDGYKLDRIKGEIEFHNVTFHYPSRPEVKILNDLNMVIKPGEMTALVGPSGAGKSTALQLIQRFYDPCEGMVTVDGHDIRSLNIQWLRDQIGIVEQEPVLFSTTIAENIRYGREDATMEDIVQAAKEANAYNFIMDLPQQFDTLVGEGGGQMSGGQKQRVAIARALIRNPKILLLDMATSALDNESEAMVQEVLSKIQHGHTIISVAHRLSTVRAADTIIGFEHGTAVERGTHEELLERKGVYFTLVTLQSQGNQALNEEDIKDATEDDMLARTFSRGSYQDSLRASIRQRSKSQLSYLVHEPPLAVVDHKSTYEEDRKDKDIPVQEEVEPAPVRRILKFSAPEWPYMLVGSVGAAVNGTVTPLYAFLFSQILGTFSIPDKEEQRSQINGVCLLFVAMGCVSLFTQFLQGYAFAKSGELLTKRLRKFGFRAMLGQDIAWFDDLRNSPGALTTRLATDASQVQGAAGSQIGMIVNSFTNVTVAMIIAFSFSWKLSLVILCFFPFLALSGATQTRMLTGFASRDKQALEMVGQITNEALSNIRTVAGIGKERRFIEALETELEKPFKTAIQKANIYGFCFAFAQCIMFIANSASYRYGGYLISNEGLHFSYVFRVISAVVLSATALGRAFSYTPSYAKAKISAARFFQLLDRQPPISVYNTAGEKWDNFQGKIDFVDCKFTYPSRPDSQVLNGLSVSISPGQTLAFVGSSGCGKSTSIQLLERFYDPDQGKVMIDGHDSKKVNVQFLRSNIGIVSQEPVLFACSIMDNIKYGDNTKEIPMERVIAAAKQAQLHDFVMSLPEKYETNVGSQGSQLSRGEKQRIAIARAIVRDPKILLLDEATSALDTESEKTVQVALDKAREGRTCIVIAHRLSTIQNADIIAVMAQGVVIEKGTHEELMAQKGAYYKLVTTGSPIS
measured.property: IC50 (µM)

{"molecule": "CC#C[C@@H](CC(=O)O)c1ccc(O[C@@H]2CCc3c(-c4ccc(O[C@@H]5CCOC5)nc4)ccc(F)c32)cc1 [Reference Example 1]", "measured.property": "IC50", "measured.value": 14.3}

====

test: Single ascending dose (SAD) study in healthy human, plasma PK; assay type: in vivo; details: human, plasma, po, 10 mg, single oral dose 10 mg, read-out: Cmax, geometric mean

{"compound": "CC#C[C@@H](CC(=O)O)c1ccc(O[C@@H]2CCc3c(-c4ccc(O[C@@H]5CCOC5)nc4)ccc(F)c32)cc1 [Reference Example 1]", "readout.units": "ng/mL", "Cmax": 545}

====

assay: Single ascending dose (SAD) study in healthy human, plasma PK; type: in vivo; details: human, plasma, po, 0.5 mg, single oral dose 0.5 mg, read-out: AUCinf, geometric mean
measured.property: AUC(0-inf) (ng·h/mL)

{"molecule": "CC#C[C@@H](CC(=O)O)c1ccc(O[C@@H]2CCc3c(-c4ccc(O[C@@H]5CCOC5)nc4)ccc(F)c32)cc1 [Reference Example 1]", "measured.value": 811}

====

Dear all, this message contains IC50 results, target or system MRP4 (Homo sapiens, UniProt O15439).
measured.property: IC50 (µM)

{"compound": "CC#C[C@@H](CC(=O)O)c1ccc(O[C@@H]2CCc3c(-c4ccc(O[C@@H]5CCOC5)nc4)ccc(F)c32)cc1 [Reference Example 1]", "target": "MRP4 (Homo sapiens, UniProt O15439)", "measured.property": "IC50", "readout.units": "µM", "measured.value": 4.4}
{"compound": "Cc1cc(OCCCS(C)(=O)=O)cc(C)c1-c1cccc(COc2ccc3c(c2)OC[C@H]3CC(=O)O)c1", "target": "MRP4 (Homo sapiens, UniProt O15439)", "measured.property": "IC50", "readout.units": "µM", "measured.value": 11.1}

====

experiment: HμRELTox assay, hepatotoxic response; assay type: cell-based; conditions: read-out: TC50 (the source's name)

{"molecule": "CC#C[C@@H](CC(=O)O)c1ccc(O[C@@H]2CCc3c(-c4ccc(O[C@@H]5CCOC5)nc4)ccc(F)c32)cc1 [Reference Example 1]", "CC50 / µM": 52.7}
{"molecule": "Cc1cc(OCCCS(C)(=O)=O)cc(C)c1-c1cccc(COc2ccc3c(c2)OC[C@H]3CC(=O)O)c1", "CC50 / µM": 88.4}

====

test: Single ascending dose (SAD) study in healthy human, plasma PK; assay type: in vivo; details: human, plasma, po, 2 mg, single oral dose 2 mg, read-out: AUClast, geometric mean

{"compound": "CC#C[C@@H](CC(=O)O)c1ccc(O[C@@H]2CCc3c(-c4ccc(O[C@@H]5CCOC5)nc4)ccc(F)c32)cc1 [Reference Example 1]", "readout.units": "ng·h/mL", "AUC(0-t)": 2480}

====

target: UniProt O95342; test: Human transporter inhibition study, BSEP; type: biochemical; conditions: in vitro inhibition; read-out: BSEP IC50

{"molecule": "Cc1cc(OCCCS(C)(=O)=O)cc(C)c1-c1cccc(COc2ccc3c(c2)OC[C@H]3CC(=O)O)c1 [fasiglifam]", "IC50": "19.6 µM"}
{"molecule": "CC#C[C@@H](CC(=O)O)c1ccc(O[C@@H]2CCc3c(-c4ccc(O[C@@H]5CCOC5)nc4)ccc(F)c32)cc1 [Reference Example 1]", "IC50": "14.3 µM"}

====

Experiment: Single ascending dose (SAD) study in healthy human, plasma PK
Type: in vivo
Conditions: human, plasma, po, 5 mg, single oral dose 5 mg fasted, read-out: Cmax, geometric mean
Description: To determine safety and pK data in human subjects, single ascending dose (SAD) study was conducted. SAD study included 5 cohorts of 8 healthy subjects who were randomized and received a single oral dose of Reference Example 1 compound or placebo (3:1) at 0.5 mg, 1 mg, 2 mg, 5 mg, or 10 mg. Each cohort was initiated after review of the safety and PK data of the previous cohort. […]

{"compound": "CC#C[C@@H](CC(=O)O)c1ccc(O[C@@H]2CCc3c(-c4ccc(O[C@@H]5CCOC5)nc4)ccc(F)c32)cc1 [Reference Example 1]", "Cmax": "243 ng/mL"}

====

assay: Single ascending dose (SAD) study in healthy human, plasma PK; format: in vivo; settings: human, plasma, po, 10 mg, single oral dose 10 mg, read-out: AUCinf, geometric mean

{"molecule": "CC#C[C@@H](CC(=O)O)c1ccc(O[C@@H]2CCc3c(-c4ccc(O[C@@H]5CCOC5)nc4)ccc(F)c32)cc1 [Reference Example 1]", "AUC(0-inf) (ng·h/mL)": 18600}

====

Test: Single ascending dose (SAD) study in healthy human, plasma PK
Assay type: in vivo
Details: human, plasma, po, 5 mg, single oral dose 5 mg fed, read-out: Cmax, geometric mean
Procedure: To determine safety and pK data in human subjects, single ascending dose (SAD) study was conducted. SAD study included 5 cohorts of 8 healthy subjects who were randomized and received a single oral dose of Reference Example 1 compound or placebo (3:1) at 0.5 mg, 1 mg, 2 mg, 5 mg, or 10 mg. Each cohort was initiated after review of the safety and PK data of the previous cohort. […]

{"compound": "CC#C[C@@H](CC(=O)O)c1ccc(O[C@@H]2CCc3c(-c4ccc(O[C@@H]5CCOC5)nc4)ccc(F)c32)cc1 [Reference Example 1]", "Cmax [ng/mL]": 250}

====

molecular target: MRP3 (Homo sapiens)
Sequence (O15438 whole entry): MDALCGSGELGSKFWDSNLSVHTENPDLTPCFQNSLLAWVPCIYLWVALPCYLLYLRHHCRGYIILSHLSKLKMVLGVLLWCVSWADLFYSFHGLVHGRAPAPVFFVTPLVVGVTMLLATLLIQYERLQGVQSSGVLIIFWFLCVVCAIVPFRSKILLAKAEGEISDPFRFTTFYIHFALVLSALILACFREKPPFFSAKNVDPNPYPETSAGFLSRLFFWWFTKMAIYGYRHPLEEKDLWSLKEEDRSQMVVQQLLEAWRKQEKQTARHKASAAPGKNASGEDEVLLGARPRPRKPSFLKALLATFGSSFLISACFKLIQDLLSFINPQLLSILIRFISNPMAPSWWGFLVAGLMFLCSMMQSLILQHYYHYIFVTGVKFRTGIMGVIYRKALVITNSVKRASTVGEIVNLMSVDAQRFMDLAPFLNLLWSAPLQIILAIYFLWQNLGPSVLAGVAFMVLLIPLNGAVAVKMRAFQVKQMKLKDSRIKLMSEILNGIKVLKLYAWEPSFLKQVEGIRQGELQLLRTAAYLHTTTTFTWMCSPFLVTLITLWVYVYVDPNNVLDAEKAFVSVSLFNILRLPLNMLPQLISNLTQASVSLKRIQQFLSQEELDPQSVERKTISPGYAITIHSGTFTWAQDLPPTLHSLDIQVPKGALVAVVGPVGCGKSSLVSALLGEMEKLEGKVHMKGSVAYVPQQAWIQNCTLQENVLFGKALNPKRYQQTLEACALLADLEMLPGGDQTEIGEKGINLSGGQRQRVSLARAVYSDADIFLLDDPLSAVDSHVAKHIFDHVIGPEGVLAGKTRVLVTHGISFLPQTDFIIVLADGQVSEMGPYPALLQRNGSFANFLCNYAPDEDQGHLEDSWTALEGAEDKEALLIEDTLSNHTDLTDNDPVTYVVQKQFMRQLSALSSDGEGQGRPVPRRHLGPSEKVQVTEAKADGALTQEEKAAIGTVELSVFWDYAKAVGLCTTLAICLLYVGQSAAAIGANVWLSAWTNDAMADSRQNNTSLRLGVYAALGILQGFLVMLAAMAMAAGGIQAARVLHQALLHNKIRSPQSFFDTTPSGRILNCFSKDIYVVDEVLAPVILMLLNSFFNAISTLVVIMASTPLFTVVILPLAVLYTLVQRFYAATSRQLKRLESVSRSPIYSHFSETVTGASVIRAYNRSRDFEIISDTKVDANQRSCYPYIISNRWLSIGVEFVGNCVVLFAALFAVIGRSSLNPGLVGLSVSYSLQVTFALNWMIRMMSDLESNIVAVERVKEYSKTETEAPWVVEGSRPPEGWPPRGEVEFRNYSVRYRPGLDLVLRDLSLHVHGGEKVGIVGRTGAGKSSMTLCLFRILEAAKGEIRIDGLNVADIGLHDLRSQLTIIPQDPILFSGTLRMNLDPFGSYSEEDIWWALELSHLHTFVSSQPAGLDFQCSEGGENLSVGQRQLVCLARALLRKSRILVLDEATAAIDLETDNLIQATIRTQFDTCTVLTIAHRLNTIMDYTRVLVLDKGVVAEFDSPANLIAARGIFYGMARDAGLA

{"chem.smiles": "Cc1cc(OCCCS(C)(=O)=O)cc(C)c1-c1cccc(COc2ccc3c(c2)OC[C@H]3CC(=O)O)c1", "readout.units": "µM", "IC50": 14.2}

====

experiment: Single ascending dose (SAD) study in healthy human, plasma PK; format: in vivo; conditions: human, plasma, po, 1 mg, single oral dose 1 mg, read-out: Cmax, geometric mean

{"molecule": "CC#C[C@@H](CC(=O)O)c1ccc(O[C@@H]2CCc3c(-c4ccc(O[C@@H]5CCOC5)nc4)ccc(F)c32)cc1 [Reference Example 1]", "Cmax [ng/mL]": 55.8}

====

test: Single ascending dose (SAD) study in healthy human, plasma PK; assay type: in vivo; conditions: human, plasma, po, 1 mg, single oral dose 1 mg, read-out: AUCinf, geometric mean
measured.property: AUC(0-inf) (ng·h/mL)

{"compound": "CC#C[C@@H](CC(=O)O)c1ccc(O[C@@H]2CCc3c(-c4ccc(O[C@@H]5CCOC5)nc4)ccc(F)c32)cc1 [Reference Example 1]", "measured.value": 1660}

====

assay: Single ascending dose (SAD) study in healthy human, plasma PK; type: in vivo; settings: human, plasma, po, 5 mg, single oral dose 5 mg fed, read-out: AUCinf, geometric mean
measured.property: AUC(0-inf) (ng·h/mL)

{"compound": "CC#C[C@@H](CC(=O)O)c1ccc(O[C@@H]2CCc3c(-c4ccc(O[C@@H]5CCOC5)nc4)ccc(F)c32)cc1 [Reference Example 1]", "measured.property": "AUC(0-inf)", "readout.units": "ng·h/mL", "measured.value": 8270}
